target-entity: α2β2γ1 GABAA receptor subtype (Homo sapiens (Human), UniProt P47869+Q8N1C3)
protocol-notes: Two-electrode voltage clamp electrophysiology in Xenopus oocytes expressing GABAA receptors (modulation of GABA EC20 current)
Type: cell-based
condition-label: % modulation of GABA EC20 = 100*(Fold increase-1); α2β2γ1 oocytes; compound at approx. 30-fold Ki
assay-metric: Efficacy (GABA)% (%)
Your answer is read as %, so omit the unit and give the number.

Reference set (5 entries):
INSERT INTO measurements (molecule, units_label, assay_value) VALUES
  ('Cc1cnc2n1-c1ccc(C(F)(F)F)c(Cl)c1C(c1c(F)cccc1F)=N[C@H]2C', '%', 49),
  ('C[C@@H]1N=C(c2c(F)cccc2F)c2c(ccc(Cl)c2Cl)-n2nc(C3CC3)nc21', '%', 75),
  ('C[C@@H]1N=C(c2ncccc2F)c2c(ccc(C(F)(F)F)c2Cl)-n2nc(C(=O)N3CC[C@H](F)C3)nc21', '%', 162),
  ('C[C@@H]1N=C(c2c(F)cccc2F)c2c(ccc(C(F)(F)F)c2Cl)-n2nc(NC(=O)NC3COC3)nc21', '%', 73),
  ('C[C@@H]1N=C(c2ncccc2F)c2c(ccc(C(F)(F)F)c2Cl)-n2cc(C(=O)NCCO)nc21', '%', 112);

Dear colleague, I am looking for the recorded Efficacy (GABA)% of the following molecule: `COC1CN(C(=O)c2cn3c(n2)CN=C(c2ccccc2F)c2c-3ccc(Cl)c2Cl)C1` 77

Dear colleague, I am looking for the recorded Efficacy (GABA)% of the following molecule: `C[C@@H]1N=C(c2ncccc2F)c2c(ccc(Cl)c2Cl)-n2nc(C(=O)N3CC4(COC4)C3)nc21` 143

Dear colleague, I am looking for the recorded Efficacy (GABA)% of the following molecule: `C[C@@H]1N=C(c2c(F)cccc2F)c2c(ccc(C(F)(F)F)c2Cl)-n2ccnc21` 70

Dear colleague, I am looking for the recorded Efficacy (GABA)% of the following molecule: `C[C@@H]1N=C(c2c(F)cccc2F)c2c(ccc(Cl)c2Cl)-n2nc(C(=O)N3CC4(CCOCC4)C3)nc21` 52

Dear colleague, I am looking for the recorded Efficacy (GABA)% of the following molecule: `C[C@@H]1N=C(c2c(F)cccc2F)c2c(ccc(Cl)c2Cl)-n2nc(C(=O)N3CCC3)nc21` 57

* * *

target-entity: α2β2γ1 GABAA receptor subtype (Homo sapiens (Human), UniProt P47869+Q8N1C3)
protocol-notes: Two-electrode voltage clamp electrophysiology in Xenopus oocytes expressing GABAA receptors (modulation of GABA EC20 current)
Type: cell-based
condition-label: % modulation of GABA EC20 = 100*(Fold increase-1); α2β2γ1 oocytes; compound at approx. 30-fold Ki
assay-metric: Efficacy (GABA)% (%)
Your answer is read as %, so omit the unit and give the number.

INSERT INTO measurements (line_notation, assay_metric, assay_value) VALUES
  ('COC1CN(C(=O)Nc2nc3n(n2)-c2ccc(Cl)c(Cl)c2C(c2c(F)cccc2F)=N[C@H]3C)C1', 'Efficacy (GABA)%', 107),
  ('C[C@@H]1N=C(c2ncccc2F)c2c(ccc(Cl)c2Cl)-n2nc(C(=O)N3CC4(CCCCO4)C3)nc21', 'Efficacy (GABA)%', 97),
  ('C[C@@H]1N=C(c2ncccc2F)c2c(ccc(C(F)(F)F)c2Cl)-n2nc(C(=O)N3CC(C(F)F)C3)nc21', 'Efficacy (GABA)%', 123),
  ('C[C@@H]1N=C(c2ncccc2F)c2c(ccc(C(F)(F)F)c2Cl)-n2cc(C(=O)N3CC(C)(O)C3)nc21', 'Efficacy (GABA)%', 177),
  ('C[C@@H]1N=C(c2ncccc2F)c2c(ccc(Cl)c2Cl)-n2nc(C(=O)N3CC4(CCOC4)C3)nc21', 'Efficacy (GABA)%', 128);

Provide the documented Efficacy (GABA)% with α2β2γ1 GABAA receptor subtype (Homo sapiens (Human), UniProt P47869+Q8N1C3) as the system for `C[C@@H]1N=C(c2c(F)cccc2F)c2c(ccc(Cl)c2Cl)-n2cc(C(=O)N3CC(C#N)C3)nc21` 51

Provide the documented Efficacy (GABA)% with α2β2γ1 GABAA receptor subtype (Homo sapiens (Human), UniProt P47869+Q8N1C3) as the system for `C[C@@H]1N=C(c2c(F)cccc2F)c2c(ccc(C(F)(F)F)c2Cl)-n2nc(C(=O)NN(C)C)nc21` 92

This collection of values is drawn from patent US12365687B2.
